Source: patent US20250026813A1

Molecular target: Receptor binding domain (Neil King, University of Washington) (SARS-CoV-2, UniProt P0DTC2 328-531)
PARAMETER_MEASURED: Kd

stdin: Which value of Kd has been reported for IMPI-029 (antibody, V domains shown) VH: EVQLVESGGGLIQPGGSLRLSCAASGVTVSSNYMNWVRQAPGKGLEWVSVIYSGGSTYYADSVKGRFTISRDNSKNTLFLQMNSLRAEDSAVYYCARDLGPYGVDVWGQGTTVTVSS VL: DIQLTQSPSFLSASVGDRVTITCWASQGISSYLAWYQQKPGKAPKLLIYAASTLQSGVPSRFSGSGSGTEFTLTISSLQPEDFATYYCQELNSYPLTFGQGTRLEIK in the records?
stdout: < 1 nM
